system: A549; test: NCI tumour cell line growth inhibition, 48 h
The source made the active and inactive calls. Cut-off read from the data, not from the text of the source: active = GI50 up to about 1.1 µM and inactive = higher. Where a SMILES comes first, the peptide text is derived from it. The star is where a group is joined. Boc = CC(C)(C)OC(=O)*; OSu = O=C1CCC(=O)N1O*
MEASURED_QUANTITY: GI50

MOLECULE: C[C@]12CCC(=O)C=C1CC[C@@H]1[C@@H]2CC[C@]2(C)C(=O)NC(=O)C[C@@H]12
SYSTEM: A549
RESULT: > 100 µM (inactive)

GET /values?readout=GI50&system=A549&item= O=CC1CCC=CC1NC(=O)OCc1ccccc1 (stereo unspecified)
> 100 µM (inactive)

GET /values?readout=GI50&system=A549&item= CC(C)(C)OC(=O)NC(Cc1ccc(O)cc1)C(=O)NC(CCCCN)C(=O)NC(Cc1ccc(O)cc1)C(=O)NC(CCCCN)C(=O)ON1C(=O)CCC1=O (stereo unspecified) (Boc-YKYK-OSu; configuration not given here)
> 100 µM (inactive)

GET /values?readout=GI50&system=A549&item= COC(=O)c1c(OC(C)=O)ccc2c1c1c(OC(C)=O)c3ccccc3c(OC(C)=O)c1n2Cc1cc(OC)cc(OC)c1
6 µM (inactive)

GET /values?readout=GI50&system=A549&item= c1ccc(-c2nnn3c2NC2=C(CCCC2)C3c2ccccc2)cc1 (stereo unspecified)
12.9 µM (inactive)

GET /values?readout=GI50&system=A549&item= Cc1c2ccccc2c(C)n2c1nc1cc3ccccc3cc12
1.86 µM (inactive)

----------
tested on: DU-145; assay: NCI tumour cell line growth inhibition, 48 h
Activity calls are given as the source filed them. Cut-off read from the data, not from the text of the source: active = GI50 up to about 1.1 µM and inactive = higher. Residues, ends and D or L forms follow the SMILES beside them. *: point of attachment. Boc = CC(C)(C)OC(=O)*; OBn = c1ccc(CO*)cc1
Write down one outcome, taken from true (1) (active), false (0) (inactive)

The examples below pair each entry with its known result.
COMPOUND: CC1=C2CC(C)(C)/C=C\C(=O)/C(C)=C\C3=C[C@H](C)C[C@]3(O2)C1=O
DISCRETE_LABEL: false (0)

COMPOUND: Cc1c2c(C#N)nccc2c(C)c2c1c1ccccc1n2Cc1ccccc1
DISCRETE_LABEL: false (0)

Called result for c1ccc2c(Nc3ncco3)cccc2c1
false (0)

Called result for CNC(=O)c1ccccc1-[s+]1c2ccccc2c(=O)n1C (stereo not given)
false (0)

Called result for CC(C)CC(NC(=O)OC(C)(C)C)C(=O)NC(CC(=O)OCc1ccccc1)C(=O)OCc1ccccc1 (stereo not drawn) (Boc-Leu-Asp(OBn)-OBn; configuration not given here)
false (0)

Called result for CN(C)CCCn1c(Cn2nc3ccccc3n2)nc2cc(C(F)(F)F)ccc21
false (0)

Called result for CN(C)Cc1cc(/C=C/C(=O)c2ccc(Cl)c(Cl)c2)cc(CN(C)C)c1O
false (0)

Called result for CCc1c[n+]2c(cc1C1=CN3c4ccccc4[C@]45CCN6C/C(=C/CO)[C@H](C[C@H]64)[C@@H]([C@@H]1O)[C@H]35)-c1[nH]c3ccccc3c1CC2
false (0)

Called result for COC(=O)c1cc(/C=C2\Cc3cc4c(cc3C2=O)CCC4)cc2c1CCC2
false (0)

Called result for CCOC(=O)/C=C(\N=P(c1ccccc1)(c1ccccc1)c1ccccc1)C(F)(F)C(F)(F)C(F)(F)C(F)(F)C(F)(F)F
false (0)

Called result for Fc1ccc(C(OCCN2CC3CC2CN3)c2ccc(F)cc2)cc1 (stereo not given)
false (0)

Called result for CCOC(=O)CCc1cn2cc(Br)nc(OC)c2n1
false (0)

Called result for CCCC(=O)n1[nH]c(=O)n(-c2ccc(Cl)cc2)c1=O
false (0)

Called result for COc1c(C)c(OC)c(C(=O)CC(C)C)c(OC)c1C
false (0)

----------
Listed here: items and their measured GI50.
tested on: UO-31; assay: NCI tumour cell line growth inhibition, 48 h
Calls of active or inactive are those of the source. Rule as the data show it: active = GI50 up to about 1.1 µM and inactive = higher.

COMPOUND: Oc1nc2c(c(-c3ccc(F)cc3)n1)COC/C2=C\c1ccc(F)cc1
MEASURED_QUANTITY: GI50
RESULT: > 100 µM (inactive)

So what does the record say about GI50 for COc1ccc(N2C(=O)C3c4[nH]c5ccc(OC)cc5c4C4CCC(c5ccccc5)CC4C3C2=O)cc1 (centres undefined) ?
29.6 µM (inactive)

So what does the record say about GI50 for c1ccc2c(c1)c1c(n2CCOCCN2CCCCC2)CCCC1 ?
11.1 µM (inactive)

----------
tested on: MDA-MB-435; assay: NCI tumour cell line growth inhibition, 48 h
The source made the active and inactive calls. Rule as the data show it: active = GI50 up to about 1.1 µM and inactive = higher.
MEASURED_QUANTITY: GI50

COMPOUND: Cn1ccc(C(=O)N2CCSC2=S)c(OCc2ccccc2)c1=O
SYSTEM: MDA-MB-435
RESULT: > 100 µM (inactive)

So what does the record say about GI50 for CC(=O)OC1CC(O)CC2=CCC3C4CCC(C(C)(O)C(O)CC5COC(=O)C5C)C4(C)CCC3C21C (stereo not given) ?
> 25 µM (inactive)

So what does the record say about GI50 for Cc1c(S(=O)(=O)N/C(=N\O)Nc2ccc(Cl)c(Cl)c2)sc2ccc(Cl)cc12 ?
17.9 µM (inactive)

So what does the record say about GI50 for COc1ccc2c(C=O)c3n(c(=O)c2c1OC)CCc1cc2c(cc1-3)OCO2 ?
22.5 µM (inactive)

So what does the record say about GI50 for C/N=C/N(C)c1c2ccccc2nc2ccccc12 ?
> 100 µM (inactive)

----------
system: SN12C; assay: NCI tumour cell line growth inhibition, 48 h
Active and inactive are the calls of the source. No stated cut-off is given here; in the data, active = GI50 up to about 1.1 µM and inactive = higher.
Write down one outcome, taken from active, inactive

The examples below pair each entry with its known result.
COMPOUND: CCc1ccc(Nc2cc(=O)n(C)c(SCc3ccccc3)n2)cc1
DISCRETE_LABEL: inactive

COMPOUND: COc1c2c(cc3oc(C)cc(=O)c13)OC(=N)C(C(N)=O)C2CC(=O)c1ccc(N)cc1 (centres undefined)
DISCRETE_LABEL: inactive

COMPOUND: O=C(CSc1nnc(-c2ccccn2)s1)N/N=C/c1ccc([N+](=O)[O-])cc1
DISCRETE_LABEL: inactive

Called result for COc1ccc2c(c1OC)C(=O)O[C@@H]2[C@H]1c2cc3c(cc2CCN1C)OCO3
inactive

Called result for CCSc1n/c(=C\c2ccco2)c2nnnn12
inactive

Called result for CCP(=O)(CC)C(Cl)(Cl)C(=O)NC
inactive

Called result for N=c1oc2ccc(Cl)cc2cc1C(N)=O
inactive

Called result for CC(=O)Nc1ccc(COC(O)CN2CCCCC2)cc1[N+](=O)[O-] (centres undefined)
inactive

Called result for OC1NC2CC3NC(O)C(O)NC3CC2NC1O (centres undefined)
inactive

Called result for CN(C)CCNC(=O)c1cccc2nc3c(ccc4ccccc43)nc12
inactive

Called result for CNC(=O)c1ccccc1-[s+]1c2ccccc2c(=O)n1C (centres undefined)
inactive

Called result for Cc1ccc2c(=O)c(-c3nnc(N)s3)c[nH]c2n1
inactive

Called result for COC(=O)C1(NC(=O)C(CC(=O)OCc2ccccc2)NC(=O)OCc2ccccc2)CCCCCCC1 (centres undefined)
inactive

----------
system: SF-295; experiment: NCI tumour cell line growth inhibition, 48 h
Activity calls are given as the source filed them. Rule as the data show it: active = GI50 up to about 1.1 µM and inactive = higher.
MEASURED_QUANTITY: GI50

So what does the record say about GI50 for CCOC(=O)C1S/C(=N\c2ccc(Cl)cc2)N=C1C (stereo not given) ?
19.6 µM (inactive)

So what does the record say about GI50 for CCOC(=O)c1cnccc1CC1(C#N)c2ccccc2C=CN1C(=O)c1ccccc1 (stereo not given) ?
53.6 µM (inactive)

So what does the record say about GI50 for CCOP(=O)(OCC)C1CCCCOC1=O (stereo not given) ?
> 100 µM (inactive)

So what does the record say about GI50 for C=CCNC(=O)NC(=O)CSC1=NC(=O)C2(NN1)c1ccccc1-c1ccccc12 ?
> 10 µM (inactive)

So what does the record say about GI50 for COc1c2c(cc3oc(C)cc(=O)c13)OC(=N)C(C(N)=O)C2CC(=O)c1ccc(N)cc1 (stereo not given) ?
> 100 µM (inactive)

So what does the record say about GI50 for Cc1cc(C)nc(NS(=O)(=O)c2ccc(Nc3c4ccccc4nc4c(C(=O)N5CCN(CCOS(C)(=O)=O)CC5)ccc(Cl)c34)cc2)n1 ?
> 100 µM (inactive)

So what does the record say about GI50 for COc1ccc(-c2cc(Cc3cccs3)c(=O)[nH]n2)cc1 ?
> 100 µM (inactive)

So what does the record say about GI50 for O=C(C(=O)c1cc2ccccc2[nH]1)c1cc2ccccc2[nH]1 ?
> 347 µM (inactive)

So what does the record say about GI50 for COc1ccc(C2=Nc3ccccc3N=C(SC)C2)cc1 ?
77.3 µM (inactive)

So what does the record say about GI50 for COc1ccc2c(c1OC)C(=O)O[C@@H]2[C@H]1c2cc3c(cc2CCN1C)OCO3 ?
> 100 µM (inactive)
